Target: Sut1 (UniProt P53032)
Sequence: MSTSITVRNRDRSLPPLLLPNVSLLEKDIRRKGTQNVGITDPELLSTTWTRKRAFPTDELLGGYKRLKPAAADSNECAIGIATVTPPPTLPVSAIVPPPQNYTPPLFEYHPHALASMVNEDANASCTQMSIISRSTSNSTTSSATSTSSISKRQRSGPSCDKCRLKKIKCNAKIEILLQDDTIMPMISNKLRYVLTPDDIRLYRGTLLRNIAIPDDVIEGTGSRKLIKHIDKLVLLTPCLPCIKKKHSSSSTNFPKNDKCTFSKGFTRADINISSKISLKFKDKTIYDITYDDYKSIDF
Experiment: PBM E-score (8-mer binding enrichment) (E-score (-0.5 to 0.5)); higher = stronger / more preferred TF binding
Details: protein concentration: 200 nM; construct: GST-full length
The full ranking holds about 33,000 sequences; the median of “E-score (-0.5 to 0.5)” is about -0.017, and the highest 2% start at about 0.3. The entries come from a sample that favours the highest values as a whole.
Please mark fulfilled if the recorded PBM E-score is equal to or greater than 0.1, and not fulfilled if it falls below.

    residue_codes            cat
 0       AGACCAAG      fulfilled
 1       CCTCCGGC      fulfilled
 2       CTAACCTA  not fulfilled
 3       ACTCCTGC  not fulfilled
 4       GCTCGCAA  not fulfilled
 5       ACGGACCT      fulfilled
 6       ATGTAGTC      fulfilled
 7       GTGTTTCA  not fulfilled
 8       ACACTCGA  not fulfilled
 9       CATGTCCG      fulfilled
10       ACGGACAG  not fulfilled
11       ACGGACCG  not fulfilled
12       ACATCTGC  not fulfilled
13       CATCCGGG  not fulfilled
14       CGTAATGC  not fulfilled
15       GAATTGGA  not fulfilled
16       GAATTGTA      fulfilled
17       ACGCAAAC  not fulfilled
18       ACTCCGGC      fulfilled
19       ACTCCCGG      fulfilled
20       ACTCCGGG      fulfilled

Cited source for all entries: the supplement of paper PMC3334620
